The entries that follow carry IC50 values tested on Prothrombin (Homo sapiens), drawn from several published reports.

# input Hi! What's the reported IC50 for Clc1ccc(CNc2cc(C3CCCN3)n[nH]2)s1 (stereo not drawn) on Prothrombin (Homo sapiens)?
# output > 100 µM

# input Give Prothrombin (Homo sapiens) IC50 for O=C(c1ccccc1)n1nc(C2CNC2)nc1NCc1ccc(Cl)s1
# output ≥ 100 µM

# input Please tell me: IC50 of COCCN1CCN(C(=O)[C@H](CNC(=O)c2ccc(Cl)s2)NS(=O)(=O)c2cc(F)cc(N3CCCC3=O)c2C)CC1 , system Prothrombin (Homo sapiens)?
# output 0.054 µM

# input Give recorded IC50 with Prothrombin (Homo sapiens) for the following compound: CCn1c(Cn2c(=O)[nH]c3ccc(OC4CCN(C(C)=N)CC4)cc32)cc2ccc(C(=N)N)cc21
# output 0.267 µM

# input Any idea what IC50 came out for C=CCOC(=O)N1CCN(S(=O)(=O)N2CCOCC2)CC1c1cc(NCc2ccc(Cl)s2)[nH]n1 (stereo not drawn) on Prothrombin (Homo sapiens)?
# output > 100 µM

###

pIC50: −log10 of the molar value.
Compiled from multiple publications: pIC50 readings for Prothrombin (Homo sapiens).

Example results:
compound=Cc1cc(C)c(C(=O)N[C@@H](Cc2cccc3ccccc23)C(=O)NCc2ccc(N)nc2)[nH]1 value_type=pIC50 endpoint_result="< 5.00"
compound=CC(C)N(C)[C@@H](C)C(=O)N(C)[C@@H](CC1CCCCC1)C(=O)NCc1ccc(N)nc1 value_type=pIC50 endpoint_result="< 5.00"
compound=CNc1ccc(OCc2cc(C(=O)OC)cc(-c3cccc(C(=N)N)c3)c2)cc1 value_type=pIC50 endpoint_result="4.00 to 5.00"
compound=O=C(c1ccoc1)n1nc(-c2ccc(Br)c(=O)[nH]2)cc1NCc1ccc(Cl)s1 value_type=pIC50 endpoint_result="6.00 to 7.00"
compound="CC(C)(C)OC(=O)N1CCCC(C)(c2cc(NCc3ccc(Cl)s3)n(C(=O)C(C)(C)C)n2)C1 (centres unmarked)" value_type=pIC50 endpoint_result="> 7.00"

# input GET /values?readout=pIC50&system=Prothrombin (Homo sapiens)&item= O=C(c1ccsc1)n1nc(C2CNC2)cc1NCc1ccc(Cl)s1
# output 5.00 to 6.00

# input Quick check: pIC50 on Prothrombin (Homo sapiens), item COCC(C)(C)C(=O)n1nc(C2(C)CCN(C(=O)OC(C)(C)C)CC2)cc1NCc1ccc(Cl)s1 ?
# output > 7.00

# input Which measured pIC50 belongs to CC(C)(C)C(=O)N1CC(c2cc(NCc3ccc(Cl)s3)n(C(=O)C(C)(C)C)n2)C1 , tested on Prothrombin (Homo sapiens)?
# output 6.00 to 7.00

# input # returns recorded pIC50 (system: Prothrombin (Homo sapiens)) for O=C(c1ccoc1)n1nc(-c2ccn(Cc3cccnc3)c(=O)c2)cc1NCc1ccc(Cl)s1
# output > 7.00

# input Provide the documented pIC50 with Prothrombin (Homo sapiens) as the system for O=C(c1ccsc1)n1nc(C2CCCO2)nc1NCc1ccc(Cl)s1 (centres unmarked)
# output ≥ 7.00

# input Notebook: pull reported pIC50 for Prothrombin (Homo sapiens), entry O=C(N1CCOCC1)N1C2CCC1CC(c1cc(NCc3ccc(Cl)s3)n(C(=O)c3cscn3)n1)C2 (centres unmarked)
# output > 7.00
